target: Sulfhydryl oxidase 1 (Homo sapiens) (UniProt O00391); test: inhibition of human sulfhydryl oxidase QSOX1 – biochemical, HyperBlu H2O2 luminescence, HTS, primary screen (AID 1347420); settings: recombinant QSOX1, HyperBlu H2O2 luminescence; at 12.5 µM; stronger effect = higher value; active = any value above zero; note: values above 100% were filed as inconclusive
Sequence (O00391 whole entry, looked up): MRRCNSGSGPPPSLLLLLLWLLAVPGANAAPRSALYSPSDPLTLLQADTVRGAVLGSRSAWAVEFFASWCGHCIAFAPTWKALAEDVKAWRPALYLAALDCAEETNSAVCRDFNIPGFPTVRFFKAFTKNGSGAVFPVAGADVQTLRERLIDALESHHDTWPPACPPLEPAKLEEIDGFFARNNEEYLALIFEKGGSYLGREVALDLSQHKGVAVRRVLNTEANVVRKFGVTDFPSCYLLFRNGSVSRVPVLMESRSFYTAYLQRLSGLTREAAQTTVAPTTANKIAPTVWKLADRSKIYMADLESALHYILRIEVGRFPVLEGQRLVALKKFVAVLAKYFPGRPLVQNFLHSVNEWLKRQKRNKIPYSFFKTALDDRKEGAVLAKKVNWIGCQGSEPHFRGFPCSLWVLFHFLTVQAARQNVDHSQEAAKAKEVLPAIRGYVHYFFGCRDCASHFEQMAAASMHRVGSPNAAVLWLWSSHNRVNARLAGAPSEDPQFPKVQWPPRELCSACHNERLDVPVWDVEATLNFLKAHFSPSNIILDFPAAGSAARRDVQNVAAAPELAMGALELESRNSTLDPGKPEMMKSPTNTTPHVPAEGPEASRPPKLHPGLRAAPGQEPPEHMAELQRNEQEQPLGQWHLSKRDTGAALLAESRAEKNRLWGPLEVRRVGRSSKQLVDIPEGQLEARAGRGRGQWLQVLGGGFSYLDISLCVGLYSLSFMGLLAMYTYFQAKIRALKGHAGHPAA
The whole screen tested about 1,300 compounds, of which about 980 (75%) were called active. Inconclusive results (about 4%) are left out. This is one part of the list.
parameter measured: inhibition (%)
Give bare numbers, in %.

Examples with answers:
| compound | parameter measured | observed value |
| --- | --- | --- |
| CNc1ncnc2c1ncn2[C@H]1C[C@H](OP(=O)(O)O)[C@@H](COP(=O)(O)O)O1 | inhibition | 13.4 |
| CC1=C(CC(=O)O)c2cc(F)ccc2/C1=C\c1ccc(S(C)(=O)=O)cc1 | inhibition | 13.7 |
| Cc1ccc(Cl)c(Nc2ccccc2C(=O)O)c1Cl | inhibition | 7.8 |

Below is a list of compounds. For each, state its recorded inhibition.
1. C=C(C)C1CC=C(C(=O)O)CC1 (stereo not given)
2. Nc1nc2c(ncn2COCCO)c(=O)[nH]1
3. Cn1ccnc1
4. COc1ccccc1N1CCN(CC(O)COc2cccc3ccccc23)CC1 (stereo not given)

1. -10.6
2. 19.3
3. 9.1
4. 11.9

Below is a list of compounds. For each, state its recorded inhibition.
1. Nc1cc(=O)[nH]c(N)n1
2. O=c1onc2n1-c1cc(Br)ccc1OC2
3. CN(C)C(N)=NCCC[C@H](N)C(=O)O
4. COc1cccc(OC)c1OCCNCC1COc2ccccc2O1 (stereo not given)
5. NC(N)=N/N=C/c1c(Cl)cccc1Cl

[11.6, 5.7, -1.4, 23.5, -6.1]

Below is a list of compounds. For each, state its recorded inhibition.
1. Cc1c(OCC(F)(F)F)ccnc1CS(=O)c1nc2ccccc2[nH]1 (stereo not given)
2. CSc1ccc2c(c1)C(N1CCN(C)CC1)Cc1ccccc1S2 (stereo not given)
3. COc1ccc([C@@H]2Sc3ccccc3N(CCN(C)C)C(=O)[C@@H]2OC(C)=O)cc1
4. CCn1ccnc1CC1COc2ccccc2O1 (stereo not given)
5. Nc1ccc(CCNc2ncnc3c2ncn3C2OC(CO)C(O)C2O)cc1 (stereo not given)
6. O=C(O)C1=CCNCC1

1: 2.3; 2: 1.3; 3: 10.6; 4: -2.8; 5: 36.3; 6: 0.2

Below is a list of compounds. For each, state its recorded inhibition.
1. CN(C)c1nc2c(Br)c(Br)c(Br)c(Br)c2[nH]1
2. CC(C)C[C@H](NC(=O)C1OC1C(=O)O)C(=O)NCCCCN=C(N)N (stereo not given in full)
3. COc1ccccc1OCC(O)CN1CCN(CC(=O)Nc2c(C)cccc2C)CC1 (stereo not given)
4. CCCCC#Cc1nc(NC)c2ncn([C@@H]3O[C@H](CO)C(O)[C@@H]3O)c2n1 (stereo not given in full)

46.6
-7.9
2.7
20.2
